- ASSAY_SYSTEM: T1, human MC4 receptor (human, UniProt P32245 1-332)
- T1 construct: whole, on cells; Assayed as membranes of BHK cells stably expressing the receptor; also called melanocortin receptor subtype 4; melanocortin receptor 4
- T1 sequence (P32245 whole entry): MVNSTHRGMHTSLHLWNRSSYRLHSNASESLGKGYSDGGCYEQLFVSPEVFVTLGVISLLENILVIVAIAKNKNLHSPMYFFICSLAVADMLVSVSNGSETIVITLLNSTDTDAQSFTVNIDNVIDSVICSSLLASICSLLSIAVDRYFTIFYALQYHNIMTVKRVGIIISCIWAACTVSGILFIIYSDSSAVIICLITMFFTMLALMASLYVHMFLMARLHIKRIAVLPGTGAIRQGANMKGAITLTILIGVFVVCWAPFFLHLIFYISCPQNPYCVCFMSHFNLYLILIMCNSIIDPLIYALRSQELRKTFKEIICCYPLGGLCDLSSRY
- PROCEDURE_DETAILS: 125I-NDP-α-MSH displacement, BHK-human MC4 membranes (Assay V);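 further: Filter-retained radioactivity read by gamma counting, with affinity obtained through non-linear regression fitting of the binding curves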
Positions of bridges follow the written chain, without caps; N, C: chain ends. Non-standard residues stand in square brackets, D forms with d. *: point of attachment. X2 = (2-(2-(16-(tetrazol-5-yl)hexadecanoylamino)ethoxy)ethoxy)acetyl, O=C(CCCCCCCCCCCCCCCc1nn[nH]n1)NCCOCCOCC(=O)*; X5 = NH(2-(2-(2-(17-carboxyheptadecanoylamino)ethoxy)ethoxy)ethyl), O=C(O)CCCCCCCCCCCCCCCCC(=O)NCCOCCOCCN*; X6 = (2-(2-(17-carboxyheptadecanoylamino)ethoxy)ethoxy)acetyl, O=C(O)CCCCCCCCCCCCCCCCC(=O)NCCOCCOCC(=O)*; biscarboxymethyl = Lys(biscarboxymethyl) = Nepsilon-bis(carboxymethyl)-L-lysine; Lys(CH2CO2H)2 = N[C@@H](CCCCN(CC(=O)O)CC(=O)O)C(=O)O; Hyp = O=C(O)[C@@H]1C[C@@H](O)CN1; Orn = NCCC[C@H](N)C(=O)O
Recorded pKi for the following binders
pKi (log units): -log10 of the concentration in mol/L.

Answered cases to consult:
>>> recorded_result("Ac-EH[dF]RW[Orn][Hyp][Hyp]RDK(biscarboxymethyl)K(X2)-NH2 (lactam 1-6)")
8.49
>>> recorded_result("Ac-[Orn]H[dF]RWDPPREK(biscarboxymethyl)K(X6)-NH2 (lactam 1-6)")
9.10

Shift focus to the following entry.
stdin: Query pKi for Ac-KH[dF]RWDPSSS[Lys(CH2CO2H)2]SS-X5 (lactam 1-6; SMILES CC(=O)N[C@H]1CCCCNC(=O)C[C@@H](C(=O)N2CCC[C@H]2C(=O)N[C@@H](CO)C(=O)N[C@@H](CO)C(=O)N[C@@H](CO)C(=O)N[C@@H](CCCCN(CC(=O)O)CC(=O)O)C(=O)N[C@@H](CO)C(=O)N[C@@H](CO)C(=O)NCCOCCOCCNC(=O)CCCCCCCCCCCCCCCCC(=O)O)NC(=O)[C@H](Cc2c[nH]c3ccccc23)NC(=O)[C@H](CCCNC(=N)N)NC(=O)[C@@H](Cc2ccccc2)NC(=O)[C@H](Cc2c[nH]cn2)NC1=O)
stdout: 8.56
